Tested on: MS2 coat protein
Test: apparent KD of MS2 coat protein; designed switch direction (-1 OFF switch, 1 ON switch): -1; higher = weaker reporter binding
Details: input ligand: FMN 200 uM
# apparent KD of MS2 coat protein annotations
# output: bare number, implied unit nM

Below, 3 sequences whose answers are already recorded.
# POLYMER_SEQUENCE, DISPLAY_UNIT, apparent KD of MS2 coat protein
data = [
    ("CCCAGUUACGGAGGAUAUUGUACAUGAGGAUCACCCAUGUAAUAAAUGAGGAUUUCGGGUGUCUACAAGAAGGCCGGGAUAGGC [Ostracism 18 - Jieux - Exclusion NG 2] (Eterna round: R96, puzzle: Exclusion NG 2)", "nM", 262),
    ("CUACUACAUGAGGAUCACCCAUGUGAGGAUAUCAGUGGUGCUGCUAGGUAGUCCGGACUGAGAAGGCGCAUAGU [Mod-Malcom] (Eterna round: R97, puzzle: Exclusion 1)", "nM", 43.1),
    ("GUAUAACAUGUAGGAUAUGCAUGGCGAAGCUAUGCAGAAGGACAUGAGGAUCACCCAUGUAAUAGCGUCUGCGUACAGAUGCAA [Mat - Exclusion NG 1 - Mod of JL - D91] (Eterna round: R96, puzzle: Exclusion NG 1)", "nM", 186),
]

// next item, apparent KD of MS2 coat protein requested
Inquiry: Param item = ACAUGUAAUGUAGGAUAUUUUACACAUGAGGAUCACCCAUGUGACCAGAGGCAUUGCUAUGAGUAAAAGAAGGGUAUGUACAUG [Ex NG2 #58] (Eterna round: R96, puzzle: Exclusion NG 2) ; retrieve measured apparent KD of MS2 coat protein.
Reply text: 47

----------
# apparent KD of K4 kissing-loop reporter annotations
System: K4 kissing-loop RNA reporter
Test: apparent KD of K4 kissing-loop reporter; higher = weaker reporter binding
Conditions: Eterna round: R107; input ligand: tryptophan 2.4 mM
# output: bare number, implied unit nM

Below, 5 sequences whose answers are already recorded.
# POLYMER_SEQUENCE, TARGET_ENTITY, EXPERIMENTAL_READOUT, RECORDED_NUMBER
data = [
    ("UCACCGCCUAGUGAUGUUACGCGACUCAGAAAGGAUAUAAUCAAUCUUAGAAGGUUCACACCGUAUGGAUAUUAUCUAUCUCGUU [theeternabot_exclusion_KL_FMN_A_39]", "K4 kissing-loop RNA reporter", "apparent KD of K4 kissing-loop reporter", 398),
    ("ACCAUCAAAGAUGGCCAGGACUCCGCUGAUACCAGAGUGGAAACACUCCCUUGGCAGCAGGUGAGUGAUGUUCACAGUCCAUGGA [Omel KL Theo A SS B v4]", "K4 kissing-loop RNA reporter", "apparent KD of K4 kissing-loop reporter", 341),
    ("UUCAGACUACUACUAUUUAGUAGUAUAUACUAGGAUAUCCAGAUAUGGAGAAGGAGUGAUGUUCCUUAGUAGUAGUGAAUUAAAU [KL-XFMN-A6]", "K4 kissing-loop RNA reporter", "apparent KD of K4 kissing-loop reporter", 114),
    ("UGACUGGAUGGAAGGAGCGCUAAACUCCUAGUGAUGUUAGGGACAUGAGGCACAGCCUUGAAGCAGGUAGGUCGCCAUCUAGUCU [FiskerMod 28 - Jieux - Same State - Arginine B]", "K4 kissing-loop RNA reporter", "apparent KD of K4 kissing-loop reporter", 174),
    ("AACGUUUUGAGAAGGAGCGCGUUAAGCAGUGAUGUUGCUUUAUUAUAUUUACUACAUAUUUCGCAGGUAGGUCGCUCAAUACGUA [JR_Nu_SSArginiB_Sub025]", "K4 kissing-loop RNA reporter", "apparent KD of K4 kissing-loop reporter", 123),
]

// next item, apparent KD of K4 kissing-loop reporter requested
Inquiry: Param item = CACCAUGAAUUCUCUAGGAGUGAUGUUUUUCGAGGACCGGUACGGCCGCCACUCGGACGAGGACCGUGGGAGCGGCGAAAAGACU [ghgmullin] ; retrieve measured apparent KD of K4 kissing-loop reporter.
Reply text: 309

----------
# apparent KD of K4 kissing-loop reporter annotations
System: K4 kissing-loop RNA reporter;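 further: bound reporter read as fluorescence of individual clusters on recovered sequencing chips by microscopy, with normalized cluster intensities fitted with a binding model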
Assay: apparent KD of K4 kissing-loop reporter; higher = weaker reporter binding
Settings: Eterna round: R107; input ligand: tryptophan 2.4 mM
Report as: number unit

Below, 4 sequences whose answers are already recorded.
# POLYMER_SEQUENCE, apparent KD of K4 kissing-loop reporter
records = [
    ("GGAUAGGACAGAGGAUAUGGAGAGUCUACAAAGUAGGCUCAUAAUCCUUGAAUGGAAGUGAUGUUUCCAGAAGGCUGUCCUAUCG [FmnBX 17 - #SwitchBubble #StaticStem #Palindromic]", "119 nM"),
    ("CUGACCAACAGCGAUACCAGCGUGGAGUGAUGUUCCGUGGAUCGGAGUGAUGUUCCGAAGCGCCCUUGGCAGCGCAGAAGCAGGA [Exclusion Theophylline B GF11]", "152 nM"),
    ("UGCUUUAGAAUACAAGGUAUUUACACUGAUACCAGUCAGUUAAAUGACCCUUGGCAGCAGUGUCAGUGAUGUUGACACAACACAU [Theo A Ex t4]", "164 nM"),
    ("AUGCGCGCGGCGGCCGCCACUCGCAUGAGAGUGAUGUUCUCGCCGUGCCCGCAAGGGUGCGGUGUGAGGACCGGGCCGGGCUGCG [#2 Same State - Tryptophan B Attempt #19 (HarryS)]", "302 nM"),
]

// next item, apparent KD of K4 kissing-loop reporter requested
Inquiry: Param item = AGACUACCACACUGUCAAUAGACAGUGAGGUAGGAUAUGCUGAAAAGCAGAAGGACCAGUGAUGUUGGUAGGUAGUCAAAAUAAA [FmnAX 11 #SwitchBubble #StaticStem #K4Early] ; retrieve measured apparent KD of K4 kissing-loop reporter.
Reply text: 74.9 nM

----------
System: MS2 coat protein
Assay: apparent KD of MS2 coat protein; higher = weaker reporter binding
Conditions: Eterna round: R107; input ligand: none
EXPERIMENTAL_READOUT: apparent KD of MS2 coat protein (nM)
# output: bare number, implied unit nM

# POLYMER_SEQUENCE, TARGET_ENTITY, DISPLAY_UNIT, apparent KD of MS2 coat protein
data = [
    ("CCAUGCAGGUCGGCCGCCACUACACACAUGAGGAUCACCCAUGUAGUUACUGGGUGAAGUGGCAGUAGGACCGGGACCUGCACAC [Brourdmod20]", "MS2 coat protein", "nM", 289),
    ("AGCCCGGGAGCGGCCGCCACUGGAGGCUGAGCGCGACAUGAGGAUCACCCAUGUGUGCCCGGCGUUAGGACCGGGCUCGCGUGGU [#1 Same State - Tryptophan B Attempt #23 (HarryS)]", "MS2 coat protein", "nM", 29.4),
    ("UAUCCACAUGAGGAUCACCCAUGUAGGGAAGGAGCGGUGAUUUCACCAGGUAGGUCGCCUUACUGAGGAGAACCGGUGGAAUCGU [Exclusion - Arginine A (Freestyle 30)]", "MS2 coat protein", "nM", 25.9),
    ("GUCGUGGUCGGAAGGAGCGACAUGAGGAUCACCCAUGUCUCCCGUUAUGGGAGUUCCUUAGGUCAGGUAGGUCGCCGACUGCGGC [#1 Exclusion - Arginine B Attempt #23 (Inspired by Omei)]", "MS2 coat protein", "nM", 199),
    ("ACUUGAUACUGAAGGAGCGUCGGAUAAACUCGCACAUGAGGAUCACCCAUGUAUAUGAAUCGGCAGGUAGGUCGCAGUAUCGAGU [#21 Same State - Arginine B]", "MS2 coat protein", "nM", 15.6),
    ("GGGUACAUCGCGGCCGCCACUUGUGUAAAUACAUGAGGAUCACCCAUGUCGAUGGAGACAUCGGGAAGGACCGGGUGAUGUACCG", "MS2 coat protein", "nM", 342),
]

Inquiry: For MS2 coat protein, provide apparent KD of MS2 coat protein of CUCUGAGUCCGUAAGGACUCAGAGGCGGAUACCAGCGAGGUCCAUCGCCCUUGGCAGCCGAACAUGAGGAUCACCCAUGUCGGUA [#1 Same State - Theophylline A Attempt #25 (HarryS)] please.
Reply text: 9.76

Inquiry: For MS2 coat protein, provide apparent KD of MS2 coat protein of AAAGCUACGUAAAAUAAAACUACAUGUGAAGGAGCGCGCGAAAGCGCAGGUAGGUCGCACAUGAGGAUCACCCAUGUCGUAGCAA [MAT - Exclusion Arginine A - Mod of Eli - D5] please.
Reply text: 63.4

Inquiry: For MS2 coat protein, provide apparent KD of MS2 coat protein of GUAUAUUAUAGAAGGAGCGUCGAAAAUGGGUAAACAUGAGGAUCACCCAUGUAAAGGGAACGACAGGUAGGUCGCUAUAAUAUAC [AstromonsSSArgB#14] please.
Reply text: 218

Inquiry: For MS2 coat protein, provide apparent KD of MS2 coat protein of `UUCAGCUAGUCGGCCGCCACUACCUGAGGAUCACCCUGGUAGGUCCACACUGCUUCGGCAGUGAGUAGGACCGGGACUAGCUGAG` please.
Reply text: 23.2

Inquiry: For MS2 coat protein, provide apparent KD of MS2 coat protein of UUAACAUGAGGAUCACCCAUGUUUGAUGAAGGAGCGACCAGAGGGUCAGGUAGGUCGCAUCACAUGAGGAUCACCCAUGUCGCCC [DOUBLE!!! :-D #13] please.
Reply text: 21.8

src = the supplement of paper PMC9170038
